Target: natural Fel d1 (cat (Felis domesticus)) (UniProt P30438)
Test: SPR, mAb captured, nFel d1 injected, 25 C
MEASURED_PROPERTY: kon (M⁻¹ s⁻¹)
State the answer as a number, implicitly in M⁻¹ s⁻¹.

1) H4H2607B (antibody, human IgG4, V domains shown) VH: EVQLVESGGGLVKPGGSLRLSCAASGFTFSDYYMNWIRQAPGKGLEWISYLSSSGSATYYADSVKGRFTISRDNAKNSLYLQMNSLRAEDTAVYYCARDGKYNTVAGDYWGQGTTVTVSS VL: DIQLTQSPSSLSASVGDRVTITCRASQGIRNDLGWYQQKPGKAPKRLIYAASSLQSGVPSRFSGSGSGTEFTLTISSLQPEDFATYYCLQHNSYPYTFGQGTKVEIKR: 2.97e+06

Next:
Indicate the recorded kon value for this binder: H4H2592B (antibody, human IgG4, V domains shown) VH: QVQLVESGGGLVKPGGSLRLSCAASGFTFSDYYMNWIRQAPGKGLEWISYISSSGSTTYYADSVKGRFTISRDNAKNSLFLQMNSLRGEDTAVYYCARDGRYNTVAGDYWGQGTTVTVSS VL: EIVMTQSPDFQSVAPKEKVTITCRASQNIGGSLHWYQQKPDQSPKLLIKYASQSFSGVPSRFSGSGSGTDFTLTINSLEAEDAATYYCLQSYTLRTFGQGTKVEIKR 1.14e+06
